- Tested on: KRAS-mutant PDC multicell tumor spheroid viability;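 further: viability read after seven days of drug exposure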
- Test details: Anticancer human tumor 521955-158-R2-J5-PDC patient-derived pancreatic carcinoma cell line growth inhibition [KRAS2]
- Measurement parameters: second compound 1 µM; first compound 0.0316 µM; hits give low values
Reported metric: viability, T/C (%)
Quick reminder: number only, in %, skip the unit.

Past entries and their recorded results:
{"columns": ["Compound", "viability, T/C, %"],
 "data": [
  ["Cn1nccc1Nc1nccc(-c2cc3c(s2)C(C)(C)N(CCN2CCOCC2)C3=O)n1 + CC1OCC2(CCN(c3cnc(Sc4ccnc(N)c4Cl)c(N)n3)CC2)C1N", 73.6],
  ["CCNC(=O)CC1N=C(c2ccc(Cl)cc2)c2cc(OC)ccc2-n2c(C)nnc21 (stereo not given) + COc1cc2nc(C)nc(NC(C)c3cc(N)cc(C(F)(F)F)c3)c2cc1OC1CCOC1", 89.2],
  ["COC(=O)c1ccc2c(C(=Nc3ccc(N(C)C(=O)CN4CCN(C)CC4)cc3)c3ccccc3)c(O)[nH]c2c1 + C=CC(=O)N1CCN(c2nc(=O)n(-c3c(C)ccnc3C(C)C)c3nc(-c4c(O)cccc4F)c(F)cc23)C(C)C1", 113],
  ["O=C(c1cc(Cc2n[nH]c(=O)c3ccccc23)ccc1F)N1CCN(C(=O)C2CC2)CC1 + CNCc1ccccc1-c1csc(C(C)Nc2nc(C)nc3cc(OC)c(OC)cc23)c1", 92.3],
  ["COc1cc2nccc(Oc3ccc(NC(=O)C4(C(=O)Nc5ccc(F)cc5)CC4)cc3)c2cc1OC + C=CC(=O)N1CCN(c2nc(OCC3CCCN3C)nc3c2CCN(c2cccc4cccc(C)c24)C3)CC1CC#N", 86.2]
]}

I'd like to know its viability, T/C. The compound in question is COc1cc2nccc(Oc3ccc(NC(=O)C4(C(=O)Nc5ccc(F)cc5)CC4)cc3)c2cc1OC + CNCc1ccccc1-c1csc(C(C)Nc2nc(C)nc3cc(OC)c(OC)cc23)c1 98.8

Can you check CC1COCCN1c1cc(-c2ccnn2C)c2ccnc(-c3ccn[nH]3)c2n1 (stereo not given) + C=CC(=O)N1CCN(c2nc(=O)n(-c3c(C)ccnc3C(C)C)c3nc(-c4c(O)cccc4F)c(F)cc23)C(C)C1 next? 47.6

Can you check COC(=O)c1ccc2c(C(=Nc3ccc(N(C)C(=O)CN4CCN(C)CC4)cc3)c3ccccc3)c(O)[nH]c2c1 + CC1OCC2(CCN(c3cnc(Sc4ccnc(N)c4Cl)c(N)n3)CC2)C1N next? 46.8

Can you check CN(C)C/C=C/C(=O)Nc1cc2c(Nc3ccc(F)c(Cl)c3)ncnc2cc1O[C@H]1CCOC1 + CNCc1ccccc1-c1csc(C(C)Nc2nc(C)nc3cc(OC)c(OC)cc23)c1 next? 97

Can you check CC(=O)OC12COC1CC(O)C1(C)C(=O)C(O)C3=C(C)C(OC(=O)C(O)C(NC(=O)OC(C)(C)C)c4ccccc4)CC(O)(C(OC(=O)c4ccccc4)C21)C3(C)C (stereo not given) + C=CC(=O)N1CCN(c2nc(=O)n(-c3c(C)ccnc3C(C)C)c3nc(-c4c(O)cccc4F)c(F)cc23)C(C)C1 next? 10.9
